// provenance: paper PMC7151106

target_or_test_system: SGLT2 (Homo sapiens, UniProt P31639)
Construct: host or cells: CHO
Sequence (P31639 whole entry): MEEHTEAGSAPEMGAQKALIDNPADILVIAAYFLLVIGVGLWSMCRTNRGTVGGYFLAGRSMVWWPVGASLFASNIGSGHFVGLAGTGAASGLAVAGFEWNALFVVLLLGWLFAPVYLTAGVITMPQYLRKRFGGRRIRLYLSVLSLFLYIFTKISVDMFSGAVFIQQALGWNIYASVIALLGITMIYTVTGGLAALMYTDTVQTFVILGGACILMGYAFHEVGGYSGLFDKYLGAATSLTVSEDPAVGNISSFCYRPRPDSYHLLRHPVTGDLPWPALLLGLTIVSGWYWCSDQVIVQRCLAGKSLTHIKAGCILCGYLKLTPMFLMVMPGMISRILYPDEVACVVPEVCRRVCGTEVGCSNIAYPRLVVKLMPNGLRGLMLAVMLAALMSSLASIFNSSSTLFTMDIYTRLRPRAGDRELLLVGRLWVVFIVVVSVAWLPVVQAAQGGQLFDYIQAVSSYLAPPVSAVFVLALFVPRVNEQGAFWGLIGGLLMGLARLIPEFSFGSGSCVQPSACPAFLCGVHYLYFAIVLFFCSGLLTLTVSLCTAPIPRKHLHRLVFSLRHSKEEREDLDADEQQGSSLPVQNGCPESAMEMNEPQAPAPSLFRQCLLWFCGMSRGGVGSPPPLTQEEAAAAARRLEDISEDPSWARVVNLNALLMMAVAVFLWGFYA
assay_notes: Time dependency of SGLT2 inhibition (preincubation) in CHO-SGLT2 cells
Assay type: cell-based
protocol_conditions: IC50 (2 h), preincubation 2 h; 10 μM [14C]AMG, 2 h, CHO-SGLT2
pIC50: −log10 of the molar value.
Consider the following molecules and their measured pIC50 readings.
property_name: pIC50

{"smiles_representation": "OC[C@H]1O[C@@H](c2cc(Cc3ccc(C4CC4)cc3)c(Cl)c3c2CCO3)[C@H](O)[C@@H](O)[C@@H]1O", "measurement": 9.10}
{"smiles_representation": "OC[C@H]1O[C@@H](c2ccc(F)c(Cc3cc4ccccc4s3)c2)[C@H](O)[C@@H](O)[C@@H]1O", "measurement": 8.00}

----------
Consider the following molecules and their measured IC50 readings.
target_or_test_system: SGLT1 (Homo sapiens)
Sequence (P13866 whole entry): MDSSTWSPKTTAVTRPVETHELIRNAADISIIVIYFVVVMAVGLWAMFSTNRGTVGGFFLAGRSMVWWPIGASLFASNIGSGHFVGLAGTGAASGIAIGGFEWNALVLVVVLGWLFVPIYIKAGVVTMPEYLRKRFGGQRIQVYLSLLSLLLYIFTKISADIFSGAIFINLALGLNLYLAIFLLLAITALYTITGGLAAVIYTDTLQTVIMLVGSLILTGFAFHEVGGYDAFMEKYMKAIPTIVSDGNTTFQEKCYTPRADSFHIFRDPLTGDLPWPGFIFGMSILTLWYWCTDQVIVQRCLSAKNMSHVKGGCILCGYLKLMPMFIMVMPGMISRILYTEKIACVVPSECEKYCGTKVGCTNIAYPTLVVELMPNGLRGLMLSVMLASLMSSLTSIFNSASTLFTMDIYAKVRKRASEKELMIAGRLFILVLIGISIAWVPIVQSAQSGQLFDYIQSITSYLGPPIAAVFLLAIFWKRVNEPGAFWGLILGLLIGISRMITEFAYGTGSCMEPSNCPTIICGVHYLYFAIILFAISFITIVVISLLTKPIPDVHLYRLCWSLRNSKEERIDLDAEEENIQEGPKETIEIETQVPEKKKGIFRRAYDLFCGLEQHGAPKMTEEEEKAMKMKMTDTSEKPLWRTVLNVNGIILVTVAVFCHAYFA
assay_notes: Inhibition of [14C]AMG uptake in CHO-SGLT1 cells
protocol_conditions: 10 μM [14C]AMG uptake, 2 h, CHO-SGLT1 minus mock; mean ± SD, triplicate
Experimental: CHO cells overexpressing SGLT1 and SGLT2 cells (CHO-SGLT1 and -SGLT2) and CHO-mock cells were characterized as previously described. […] After replacing Na^+-free buffer with Na^+ gradient buffer (10 mM HEPES, 5 mM Tris, 140 mM NaCl, 2 mM KCl, 1 mM CaCl2, 1 mM MgCl2, pH7.4) containing 10 µM [^14C]AMG, the uptake of [^14C]AMG into the CHO-mock cells and CHO-SGLT1 and -SLGT2 cells was measured for 0.5, 1, 1.5, 2, and 3 h. […]

{"smiles_representation": "OC[C@H]1O[C@@H](c2cc(Cc3ccc(C4CC4)cc3)c(Cl)c3c2CCO3)[C@H](O)[C@@H](O)[C@@H]1O", "IC50 (nM)": 549}
{"smiles_representation": "OC[C@H]1O[C@@H](c2ccc(F)c(Cc3cc4ccccc4s3)c2)[C@H](O)[C@@H](O)[C@@H]1O", "IC50 (nM)": 2330}

----------
Tested on: OAT3
Construct: host or cells: HEK293
assay_notes: Substrate specificity / uptake in HEK293-OAT3 cells
Type: in vitro ADME
protocol_conditions: human, HEK293-OAT3 minus mock, 0.5–50 μM, read-out: OAT3-mediated uptake: Km

{"molecule": "OC[C@H]1O[C@@H](c2cc(Cc3ccc(C4CC4)cc3)c(Cl)c3c2CCO3)[C@H](O)[C@@H](O)[C@@H]1O [DWP16001]", "Km at 5 min (µM)": 31.1}

----------
assay_notes: Pharmacokinetic study and kidney distribution after single oral administration in ICR mice
protocol_conditions: ICR, mouse, plasma, po, 1 mg/kg

{"smiles_representation": "OC[C@H]1O[C@@H](c2cc(Cc3ccc(C4CC4)cc3)c(Cl)c3c2CCO3)[C@H](O)[C@@H](O)[C@@H]1O", "Cmax, ng/mL": 371}

----------
assay_notes: physchem
property_name: logP

{"smiles_representation": "OC[C@H]1O[C@@H](c2ccc(F)c(Cc3cc4ccccc4s3)c2)[C@H](O)[C@@H](O)[C@@H]1O", "measurement": 2.56}
{"smiles_representation": "CCOc1ccc(Cc2cc([C@@H]3O[C@H](CO)[C@@H](O)[C@H](O)[C@H]3O)ccc2Cl)cc1", "measurement": 2.27}

----------
Consider the following compounds and their measured Cmax readings.
assay_notes: in vivo
protocol_conditions: ICR, mouse, po, 1 mg/kg

{"smiles_representation": "OC[C@H]1O[C@@H](c2ccc(F)c(Cc3cc4ccccc4s3)c2)[C@H](O)[C@@H](O)[C@@H]1O", "Cmax (ng/mL)": 410}
{"smiles_representation": "CCOc1ccc(Cc2cc([C@@H]3O[C@H](CO)[C@@H](O)[C@H](O)[C@H]3O)ccc2Cl)cc1", "Cmax (ng/mL)": 275}

----------
assay_notes: Pharmacokinetic study and kidney distribution after single oral administration in ICR mice
protocol_conditions: ICR, mouse, kidney, po, 1 mg/kg, t1/2, kidney; single oral 1 mg/kg; ICR mice; mean ± SD, five mice

{"smiles_representation": "OC[C@H]1O[C@@H](c2cc(Cc3ccc(C4CC4)cc3)c(Cl)c3c2CCO3)[C@H](O)[C@@H](O)[C@@H]1O", "unit_spec": "h", "half-life": 126}

----------
target_or_test_system: SGLT2 (Homo sapiens, UniProt P31639)
Construct: host or cells: CHO
assay_notes: Inhibition of [14C]AMG uptake in CHO-SGLT2 cells
Type: cell-based
protocol_conditions: 10 μM [14C]AMG uptake, 2 h, CHO-SGLT2 minus mock; mean ± SD, triplicate
property_name: IC50 (nM)

{"smiles_representation": "OC[C@H]1O[C@@H](c2ccc(F)c(Cc3cc4ccccc4s3)c2)[C@H](O)[C@@H](O)[C@@H]1O", "measurement": 8.9}
{"smiles_representation": "OC[C@H]1O[C@@H](c2cc(Cc3ccc(C4CC4)cc3)c(Cl)c3c2CCO3)[C@H](O)[C@@H](O)[C@@H]1O", "measurement": 0.8}
